# credit: PubChem BioAssay (NCI)

Known growth of a selection of compounds
System: NCI-H322M lung
Assay Method Text: NCI-60 one-dose screen, 48 h (100 = growth as untreated, 0 = no growth, -100 = all killed)
Protocol Conditions: 10 µM unless noted
About 83,000 compounds went through this panel and 20% of them were active in at least one assay; those are over-represented in the sample as a whole. The source made the active and inactive calls. Rule for the calls: active = growth percent below 10; inactive = the rest.

| Mol | growth |
| --- | --- |
| COc1cc2ncnc(Nc3ccc(O)cc3)c2cc1OC | 12.4% (inactive) |
| O=c1nc2c(-c3nc4ccccc4s3)n[nH]n2c2sc3c(c12)CCCC3 | 107% (inactive) |
| CC[C@@H]1C(=O)N(C)c2cnc(Nc3ccc(C(=O)NC4CCN(C)CC4)cc3OC)nc2N1C1CCCC1 | 24.9% (inactive) |
| COc1ccc(Nc2ncccc2NC(=O)c2cn(Cc3cccc(Oc4ccccc4)c3)nn2)cc1 | 82.9% (inactive) |
| CNc1ncc2cc(-c3cc(NC(=O)NCCC(C)(C)C)c(F)cc3C)c(C)nc2n1 | 4.99% (active) |

----------
System: OVCAR-4 ovarian
Assay Method Text: NCI-60 one-dose screen, 48 h (100 = growth as untreated, 0 = no growth, -100 = all killed)
Protocol Conditions: 10 µM unless noted
The panel holds about 83,000 compounds, 20% with a hit somewhere; the sample as a whole holds those more often.
Rule: growth of 80% or more gives True; anything lower gives False.

| Compound | Assayed System | Group |
| --- | --- | --- |
| COc1ccc(-n2c(=O)c3ccccc3n(Cc3ccc(C(=O)NO)cc3)c2=O)cc1 | OVCAR-4 ovarian | False |
| O=CC(OC(=O)c1ccccc1)C(OC(=O)c1ccccc1)C(COC(c1ccccc1)(c1ccccc1)c1ccccc1)OC(=O)c1ccccc1 (stereo not drawn) | OVCAR-4 ovarian | True |
| Cc1ccccc1Nc1nc2nonc2nc1Nc1cccc(C)c1C | OVCAR-4 ovarian | False |
| CCOc1ccc(N=C(C)Nc2ccc(OCC)cc2)cc1 | OVCAR-4 ovarian | True |
| Cc1cn(-c2cc(NC(=O)c3ccc(C)c(Nc4nccc(-c5cccnc5)n4)c3)cc(C(F)(F)F)c2)cn1 | OVCAR-4 ovarian | False |
| C=CCn1c(=O)c2cnc(Nc3ccc(N4CCN(C)CC4)cc3)nc2n1-c1cccc(C(C)(C)O)n1 | OVCAR-4 ovarian | False |
| COC(=O)[C@H](Cc1ccccc1)NC(=O)[C@@H](OC)[C@@H]1Cc2cc3cc(OC4CC(OC5CC(O)C(O)C(C)O5)C(O)C(C)O4)c(C)c(O)c3c(O)c2C(=O)[C@H]1OC1CC(OC2CC(OC3CC(C)(O)C(O)C(C)O3)C(O)C(C)O2)C(O)C(C)O1 (stereo partly drawn) | OVCAR-4 ovarian | False |

----------
System: SN12C renal
Assay Method Text: NCI-60 one-dose screen, 48 h
Protocol Conditions: 10 µM unless noted
This is part of a sample that, as a whole, favours compounds with a hit. Of some 83,000 tested, about 20% had one in any assay. Active and inactive are the calls of the source. Rule for the calls: active = growth percent below 10; inactive = the rest.
Possible outcomes: active, inactive

| Compound | Group |
| --- | --- |
| O=C(O)c1ccc2c(c1)nc(Nc1cccc(Cl)c1)c1ccncc12 | inactive |
| N#Cc1c(NC(=O)c2cccs2)[n+]([O-])c2ccc(F)cc2[n+]1[O-] | inactive |
| Cc1cc(C(=O)NOCCO)c(Nc2ccc(I)cc2F)n(C)c1=O | inactive |
| O=C1NC(=O)/C(=C/c2ccc3nccc(-c4ccncc4)c3c2)S1 | active |
| COc1cc(Nc2c(C#N)cnc3cc(OCCCN4CCN(C)CC4)c(OC)cc23)c(Cl)cc1Cl | inactive |
| COc1ncc(-c2ccc3nccc(-c4ccnnc4)c3c2)cc1NS(=O)(=O)c1ccc(F)cc1F | inactive |
| Cc1csc(-c2nnc(Nc3ccc(Oc4ncccc4-c4ccnc(N)n4)cc3)c3ccccc23)c1 | inactive |
| CNC(=O)c1cccc2cc(Oc3ccnc4cc(OCC5(N)CC5)c(OC)cc34)ccc12 | inactive |
| Cc1nn(-c2nc3ccccc3[nH]2)c2c1C(c1ccc(O)cc1)CC(=O)N2 (stereo unspecified) | inactive |
| CC(=O)Nc1cccc(-n2c(=O)n(C3CC3)c(=O)c3c(Nc4ccc(I)cc4F)n(C)c(=O)c(C)c32)c1 | inactive |
| O=C1CSC(c2c(F)cccc2Cl)N1NC(=O)C(O)(c1ccccc1)c1ccccc1 (stereo unspecified) | inactive |
| COc1ccc(Cc2cc(-c3ccccc3C)n[nH]c2=O)cc1 | inactive |
| CO[C@H](C(=O)N[C@@H](CCCCNC(=O)OCc1ccccc1)C(=O)OC(C)(C)C)[C@@H]1Cc2cc3cc(OC4CC(OC5CC(O)C(O)C(C)O5)C(O)C(C)O4)c(C)c(O)c3c(O)c2C(=O)[C@H]1OC1CC(OC2CC(OC3CC(C)(O)C(O)C(C)O3)C(O)C(C)O2)C(O)C(C)O1 (stereo partly specified) | active |
| O=C(Nc1ccc(Nc2ncnc3sc4c(c23)CCOC4)cc1)Nc1ccc(Cl)c(C(F)(F)F)c1 | inactive |
| CCCCCCC1(/C=N/NC(N)=O)NC(=O)NC1=O (stereo unspecified) | inactive |
| Cc1ccc(NC(=O)Nc2ccc(Nc3ncnc4sc5c(c34)CCOC5)cc2)cc1Cl | inactive |
| Clc1ccc2c(NCCNc3nc(N4CCCC4)nc4ccccc34)ccnc2c1 | active |
| COc1ccc2c(OCc3nnc4ccc(-c5ccccc5)nn34)ccnc2c1 | inactive |
| O=C1NC(=O)[C@@H](c2cn3c4c(cccc24)CCC3)[C@@H]1c1c[nH]c2ccccc12 | inactive |
| COc1ccc(C2CC(=O)c3c(O)c(OC)c(OC)c(OC)c3O2)cc1O (stereo unspecified) | inactive |
| N#Cc1c(C(F)(F)F)cc(Nc2ccc3nc(NCCN4CCCC4)oc3c2)n2c1nc1ccccc12 | inactive |
| COc1cc(NCCN(CC(C)C)CC(C)C)c2ncc(C)cc2c1 | inactive |
| CN1C/C=C\CCOc2cccc(c2)-c2ccnc(n2)Nc2cccc(c2)C1 | active |
| CNC(=O)c1cc(Oc2cccc3nc(Nc4ccc(Oc5ccccc5)cc4)ccc23)ccn1 | inactive |
| O=C(Cn1ccnc1)Nc1ccc(-c2nc3ccccc3s2)cc1 | inactive |
| CC[C@H](Nc1ncnc2nc[nH]c12)c1nc2cccc(F)c2c(=O)n1-c1ccccc1 | inactive |
| Cn1ccnc1C(=O)/C=C/c1ccc(CC(=O)Nc2ccc(S(F)(F)(F)(F)F)cc2)cc1 | active |
| Clc1ccc(C(Cn2ccnc2)OCc2ccsc2Cl)c(Cl)c1 (stereo unspecified) | inactive |
| O=C(c1ccc(/C=C/c2n[nH]c3ccccc23)cc1)N1CCNCC1 | inactive |
| Clc1ccc(Nc2nccc(Nc3ccc4[nH]ncc4c3)n2)cc1 | inactive |
| COc1cc2nccc(Oc3ccc(NC(=O)Nc4cc(C)on4)c(Cl)c3)c2cc1OC | inactive |
| Cc1ccc(C(=O)Nc2ccc(CN3CCN(C)CC3)c(C(F)(F)F)c2)cc1C#Cc1cnc2cccnn12 | active |
| COc1cc2c(Oc3ccc(NC(=O)C4(C(=O)Nc5ccc(F)cc5)CC4)cc3F)ccnc2cc1OCCCN1CCOCC1 | inactive |
| Clc1ccc2c(NCCCNCc3ccc4c(c3)OCO4)ccnc2c1 | inactive |
| O=CC(OC(=O)c1ccccc1)C(OC(=O)c1ccccc1)C(COC(c1ccccc1)(c1ccccc1)c1ccccc1)OC(=O)c1ccccc1 (stereo unspecified) | inactive |
| CO[C@H]1C[C@@H]2CC[C@@H](C)[C@@](O)(O2)C(=O)C(=O)N2CCCC[C@H]2C(=O)O[C@H]([C@H](C)C[C@@H]2CC[C@@H](OP(C)(C)=O)[C@H](OC)C2)CC(=O)[C@H](C)/C=C(\C)[C@@H](O)[C@@H](OC)C(=O)[C@H](C)C[C@H](C)\C=C/C=C/C=C/1C | inactive |

----------
System: K-562 leukemia
Assay Method Text: NCI-60 one-dose screen, 48 h
Protocol Conditions: 10 µM unless noted
Compounds without any hit were thinned out: in the full panel of roughly 83,000, 20% have a hit. Active and inactive are the calls of the source. Rule for the calls: active = growth percent below 10; inactive = the rest.
Possible outcomes: active, inactive

| Compound | Group |
| --- | --- |
| COc1cc(CCc2cc(NC(=O)c3ccc(N4C[C@@H](C)N[C@@H](C)C4)cc3)n[nH]2)cc(OC)c1 | active |
| COc1ccc(Br)cc1NC(=O)Nc1cccc2c1ccn2Cc1ccnc(N)c1 | active |
| CC(C)[C@@H](C)/C=C/[C@@H](C)[C@H]1CCC2=C3C=CC4=CC(=O)CC[C@]4(C)[C@H]3CC[C@@]21C | inactive |
| Cc1ncc(-c2ccnc(Nc3ccc(S(C)(=O)=O)cc3)n2)n1C(C)C | active |
| C=C1C(=O)O[C@H]2[C@H]1CC/C(CNC(=O)c1cc3cc(OC)ccc3[nH]1)=C\CC[C@@]1(C)O[C@@H]21 | active |
| Cc1cc2c(-c3nc4ccccn4c3NC3CCCCC3)c(O)c(O)cc2c(O)c1-c1c(C)cc2c(-c3nc4ccccn4c3NC3CCCCC3)c(O)c(O)cc2c1O | inactive |
| COC(=O)[C@H](C)NC(=O)[C@@H](OC)[C@@H]1Cc2cc3cc(OC4CC(OC5CC(O)C(O)C(C)O5)C(O)C(C)O4)c(C)c(O)c3c(O)c2C(=O)[C@H]1OC1CC(OC2CC(OC3CC(C)(O)C(O)C(C)O3)C(O)C(C)O2)C(O)C(C)O1 (stereo partly specified) | active |
| C=CC(=O)Nc1cc2c(Nc3ccc(F)c(Cl)c3)ncnc2cc1OCCCN1CCOCC1 | active |
| CNC(=O)c1cc(Oc2cccc3nc(Nc4ccc(Oc5ccccc5)cc4)ccc23)ccn1 | inactive |
| CC(=O)NCC(=O)N1[C@@H]2CC[C@H]1c1ccc(Nc3ncc(C(F)(F)F)c(NC4CCC4)n3)cc12 | inactive |
| Cc1[nH]n(C(N)=S)c(=O)c1N=Nc1ccc(S(=O)(=O)Nc2ccncn2)cc1 | inactive |
| c1cc[n+](Cc2c3ccccc3cc3c2ccc2ccccc23)cc1 | inactive |
| COC(=O)N[C@@H](C)CNc1nccc(-c2cn(C(C)C)nc2-c2cc(Cl)cc(NS(C)(=O)=O)c2F)n1 | inactive |
| N#Cc1c(-c2ccc(Cl)cc2)csc1NC(=O)Nc1cccc(C(F)(F)F)c1 | active |
| CC(C)OP(=O)(CCC(=O)c1c[nH]c2ccccc12)OC(C)C | inactive |
| COc1ccc2c(CCC(c3ccccc3)c3ccccc3)c3[n+](cc2c1OC)CCc1cc2c(cc1-3)OCO2 | active |
| CN1CCN(CCOc2cc(OC3CCOCC3)c3c(Nc4c(Cl)ccc5c4OCO5)ncnc3c2)CC1 | active |
| COc1cc(N2CCC(N3CCN(C)CC3)CC2)ccc1Nc1ncnc(Nc2ccccc2S(=O)(=O)C(C)C)n1 | inactive |
| ClCc1ccc(-c2ccc(Cn3cnc4nc(Cl)nc(Cl)c43)cc2)cc1 | active |
| CCCCN1C(=O)c2cccc3c(-c4ccc5c(c4)ncn5C4CCCCC4)ccc(c23)C1=O | inactive |
| CC(C)c1cc(CNc2nc(Nc3cc(C4CC4)[nH]n3)cc(N3CCN(C)CC3)n2)on1 | active |
| Cn1cc(-c2ccc(F)c(C(F)(F)F)c2)nc1C1CCN(c2ncnc3[nH]ncc23)CC1 | inactive |
| CCc1cnn2c(NCc3ccc[n+]([O-])c3)cc(N3CCCC[C@H]3CCO)nc12 | active |
| Cc1ccc(F)c(NC(=O)Nc2ccc(-c3cccc4[nH]nc(N)c34)cc2)c1 | active |
| CNC(=O)CN1CCC(Oc2cc3c(Nc4cccc(Cl)c4F)ncnc3cc2OC)CC1 | inactive |
| COC1CCC(N2C(=O)CNc3ncc(-c4ccc(C(C)(C)O)nc4)nc32)CC1 (stereo unspecified) | active |
| Cc1ccc(NC(=O)Nc2ccc(Nc3ncnc4sc5c(c34)CCOC5)cc2)cc1Cl | inactive |
| COc1cnc2c(c1)C(=O)c1c-2n(CCCN2CCC(O)CC2)c(=O)c2cc(Cl)ccc12 | active |
| Clc1nc(Cl)c2ncn(CC#CCn3cnc4c(Cl)nc(Cl)nc43)c2n1 | active |
| Cn1ncc(Cl)c1-c1cc(C(=O)N[C@H](CN)Cc2cccc(F)c2)sc1Cl | active |
| COc1ccc(-c2cc3c(C)nc(N)nc3n(C3CCC(OCCO)CC3)c2=O)cn1 (stereo unspecified) | inactive |
| Cc1cccc(Cl)c1NC(=O)c1cnc(Nc2cc(N3CCOCC3)cc(N3CCOCC3)c2)s1 | active |
| N#Cc1ccc(-n2nnc3ccccc32)cc1C#N | inactive |
| Cc1cc(-c2cc(OC(=O)c3ccccc3)ccc2Cl)cc2nnc(Nc3ccc(OCCN4CCCC4)cc3)nc12 | active |
| COC[C@@H](C)n1c(C2CCOCC2)nc2c1C1C=C(OC)C(c3c(C)noc3C)=CC1N=C2 (stereo partly specified) | inactive |
| COc1cccc2cc(-c3nc(C4CCC(C(=O)O)CC4)n4ncnc(N)c34)[nH]c12 (stereo unspecified) | inactive |
